For each entry below, report its IC50 value.
EXPERIMENTAL TARGET: COVID-19 (nCoV-2019, SARS-CoV2) Mpro (Severe acute respiratory syndrome coronavirus 2, UniProt P0DTD1)
ASSAY NAME: COVID-19 (nCoV-2019, SARS-CoV2) Mpro enzymatic assay
Format: biochemical
EXPERIMENTAL CONTEXT: 25 nM Mpro, 25 μM substrate; read-out: COVID-19 Mpro IC50

Exercise: Identify measured IC50 associated with CO[C@@H]1C[C@H](C(=O)N(c2ccc(S(F)(F)(F)(F)F)cc2)C(C(=O)NCC2(C)CCCN(C(=O)OC(C)(C)C)C2)c2cccnc2)N(C#N)C1 (single isomer, unassigned) [1290 Isomer 1]
Key: < 2 µM

Exercise: Tell us which IC50 value is on record for CO[C@@H]1C[C@H](C(=O)N(c2ccc(S(F)(F)(F)(F)F)cc2)C(C(=O)NC2CCC(F)(F)CC2)c2cnccc2C#N)N(C#N)C1 (stereo partly shown)
Key: < 2 µM

Exercise: In one line, give reported IC50 of the entry CO[C@@H]1C[C@H](C(=O)N(c2ccc(S(F)(F)(F)(F)F)cc2)C(C(=O)N2CCN(C(=O)OC(C)(C)C)CC2)c2cccnc2)N(C#N)C1 (stereo partly shown) [Compound 1149b] .
Key: < 2 µM

Exercise: Specify reported IC50 for the compound shown: CN1CN(C(=O)C(c2cccnc2)N(C(=O)[C@H]2CCCN2C#N)c2ccc(C(C)(C)C)cc2)CC1=O (stereo partly shown)
Key: 10 to 30 µM

Exercise: Dear colleague, please send me the reported IC50 for N#CN1CCC(F)(F)C1C(=O)N(c1ccc(S(F)(F)(F)(F)F)cc1)C(C(=O)NC1CCOCC1)c1cncc(F)c1 (stereo not shown) when you can.
Key: < 2 µM

Exercise: Please indicate IC50 recorded for CC(C)(C)c1ccc(N(C(=O)C2CS(=O)(=O)CCN2C#N)C(C(=O)NC2CCCCC2)c2cccnc2)cc1 (stereo not shown)
Key: < 2 µM

Exercise: # return recorded IC50 for entry CC(C)(C)OC(=O)N1CC(C)(C(=O)N(c2ccc(C(C)(C)C)cc2)C(C(=O)NC2CCCCC2)c2cccnc2)C1 (stereo not shown)
Key: > 30 µM

Exercise: Quote IC50 reported for O=C(NC1CCC(F)(F)CC1)C(c1cncc(F)c1)N(C(=O)c1cnc[nH]1)c1ccc(C2CC2)cc1F (single isomer, unassigned) [1336 Isomer 1] please.
Key: 10 to 30 µM

Exercise: Tell us which IC50 value is on record for C[C@H]1CN(C#N)[C@H]1C(=O)N(c1ccc(S(F)(F)(F)(F)F)cc1)C(C(=O)NC1CCC(F)(F)CC1)c1cncc(F)c1 (single isomer, unassigned) [1210 Isomer 2]
Key: < 2 µM

Exercise: Determine its reported IC50: CC(C)(C)c1ccc(N(C(=O)[C@H]2C[C@@](C)(O)CN2C#N)C(C(=O)NC2CCOCC2)c2cccnc2)cc1 (single isomer, unassigned) [1142 Isomer 1]
Key: < 2 µM

Exercise: Let me know recorded IC50 for CN(C)CCCNC(=O)C(c1cccnc1)N(C(=O)[C@H]1CCCN1C#N)c1ccc(C(C)(C)C)cc1 (stereo partly shown) , thanks.
Key: 2 to 10 µM

Exercise: Quick one: give measured IC50 for CN(C)C(=O)CNC(=O)C(c1cccnc1)N(C(=O)[C@H]1CCCN1C#N)c1ccc(C(C)(C)C)cc1 (stereo partly shown)
Key: 2 to 10 µM

Exercise: Tell us which IC50 value is on record for CN(C)CCNC(=O)C(c1cccnc1)N(C(=O)[C@H]1CCCN1C#N)c1ccc(C(C)(C)C)cc1 (single isomer, unassigned) [Compound 435 Isomer 2]
Key: 10 to 30 µM

Exercise: Give me measured IC50, please, for this compound: CC(C)(C)c1ccc(N(C(=O)c2nccnc2C(N)=O)C(C(=O)NC2CCCCC2)c2cccnc2)cc1 (stereo not shown) [Compound 124a]
Key: > 30 µM

Exercise: Report IC50, nothing else, for this compound: N#CN1C[C@H](O)C[C@@H]1C(=O)N(c1ccc(S(F)(F)(F)(F)F)cc1F)C(C(=O)NC1CCC(F)(F)CC1)c1cccnc1 (single isomer, unassigned) [1288a Isomer 1]
Key: < 2 µM

Exercise: Specify IC50 for CO[C@@H]1C[C@H](C(=O)N(c2ccc(S(F)(F)(F)(F)F)cc2)C(C(=O)NC(C)C2CCCCN2C(=O)OC(C)(C)C)c2cccnc2)N(C#N)C1 (single isomer, unassigned) [1303 Isomer 1] and stop.
Key: 2 to 10 µM
